Target: T1, g1 IL-20 (fusion protein of human IL-20 with Gaussia luciferase at the IL-20 N-terminus) (human, UniProt Q9NYY1 25-176)
T1 construct: also called IL-20-Gaussia luciferase fusion protein; GLuc-IL-20; not shown: Gaussia luciferase (pGaussia1 vector)
T1 sequence (looked up): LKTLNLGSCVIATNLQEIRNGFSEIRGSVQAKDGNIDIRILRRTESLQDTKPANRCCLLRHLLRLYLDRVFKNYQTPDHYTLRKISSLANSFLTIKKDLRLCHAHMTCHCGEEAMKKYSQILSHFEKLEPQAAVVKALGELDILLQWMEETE
Assay: GLuc-sandwich ELISA, fusion protein captured by anti-GLuc antibody, serial dilution of MAB
As shown below, each of these binders has a reported EC50 value.
Your answer should be a plain number; it is taken to be in µg/mL.

As a guide, the following entries are already answered.
Binder	EC50 [µg/mL]
antibody 20A10 (antibody, human IgG4, kappa, V domains shown, Recombinant human-derived antibody; also called MAb 20A10; 20A0) VH: QVQLVQSGAEVKKPGSSVKVSCKTSGGTFSTSTLSWVRQAPGQGLEWLGGMIPILSRTTYAQKFQGRLTITADEPTSTSYMELSSLKSEDTAVYYCATEGEVSAAHNYYYGMDVWGQGTTVTVSS VL: DIVLTQSPLYLPVTPGEPASISCRSSQSLLHGNGHNYLDWYLQKPGQSPQLLIYLGSNRASGVPDRFSGSGSGTDFTLKISRVEAEDVGVYYCMQTLHTVFTFGPGTRVDIKR	0.0186
antibody 7D1 (antibody, human IgG1, lambda, V domains shown, IgG1, lambda; also called MAb 7D1) VH: EVQLVASGGDFIQPGRSLRLSCAASGFKFDDYAMFWVRQVPGRGLEWVSGISWSSDKMAYVDSVKGRFTISRDNAKNTLYLQMNNLRPDDTAFYYCAKGGFSSVWNYFDFWGQGTLVTVSS VL: QSVLTQPPSASGTPGQTVIISCSGTTSNIGSNTVSWYRQLPGAAPKLLIFTYNQRPSGVPDRFSGSKSGTSASLAISGLQSDDEADYYCAVWDDALGGWVFGGGTKLTVLG	5.87
antibody 2A11 (antibody, IgG1, V domains shown, IgG1, lambda; also called MAb 2A11) VH: QVHLVQSGAEVKKPGSSVKVSCKASGGTFNNFPMSWVRQAPGRGLEWMAGIIPVFGSANYAQQFHGRVTISADISTSTVSMELNDLKSEDTGVYYCAISGDEDNWIMNFWGQGTLVTVSS VL: QSLLTQPPSVSGAPGQRVTISCTGSSSNIGAGYDVHWYQQVPGTAPKLLIYGNRNRPSGVPDRFSGSKSGTSASLAITGLQAEDEADYYCQSYDSSLSGHAVFGGGTKVTVLR	0.0098

Moving on to another binder below.
Look up EC50 of antibody 6E11 (antibody, IgG1, V domains shown, IgG1; also called MAb 6E11) VH: QVQLVQSGAEVKKPGSSVKVSCKASGGTFRNYAINWVRQAPRQGLEWMGSLVPMFTSPTYAQKFRGRVTISADESTATSSMELTSLTSEDTAVYFCSADGYKGGLFYGMNVWGQGTTVTVSS VL: DIVLTQSPESLAVSLGERATINCKSSQSVLYSSNSKNYLAWFQQKPGQPPKLLIYWASTRESGVPDRFSGSGSGTDFTLTITSLQAEDVAVYYCHQYHTLPRTFGHGTKVEIKR and report it. 0.128
